Test system: VCaP cells
assay info: Cytotoxicity assay (AlamarBlue, 72 hours)
Assay type: cell-based
run conditions: 72 hours treatment, concentration not given
endpoint name: Cytotoxicity, VCaP cells (cell viability %)

| compound | value measured |
| --- | --- |
| Cc1ncsc1-c1ccc(CNC(=O)[C@@H]2C[C@H](O)CN2C(=O)[C@@H](NC(=O)c2ccc(C(=O)N3CCC(C#Cc4ccc(C5CCN(C6=Nn7c(nnc7C(F)(F)F)CC6)CC5)cc4)CC3)cc2)C(C)(C)C)cc1 [Compound 33] | +++ (<40% : +++) |
| Cc1ncsc1-c1ccc(CNC(=O)[C@@H]2C[C@H](O)CN2C(=O)[C@@H](NC(=O)COCCCCOc2ccc(C3CCN(c4ccc5nnc(C(F)(F)F)n5n4)CC3)cc2)C(C)(C)C)cc1 [Compound 37] | +++ (<40% : +++) |
| Cc1cc([C@H](C(=O)N2C[C@H](O)C[C@H]2C(=O)N[C@@H](CC(=O)N2CCC(N3CCC(C#Cc4ccc(C5CCN(C6=Nn7c(nnc7C(F)(F)F)CC6)CC5)cc4)CC3)CC2)c2ccc(-c3scnc3C)cc2)C(C)C)on1 [Compound 9] | +++ (<40% : +++) |

---

System: VCaP cells
assay info: Cytotoxicity assay (AlamarBlue, 72 hours)
Type: cell-based
run conditions: 72 hours treatment, concentration not given
endpoint name: Cytotoxicity, VCaP cells (cell viability %)

| molecule | system name | value measured |
| --- | --- | --- |
| CC1(C)C(NC(=O)c2ccc(C#CC3CCN(C(=O)CNc4cccc5c4C(=O)N(C4CCC(=O)NC4=O)C5=O)CC3)cc2)C(C)(C)C1Oc1ccc2nnc(C(F)(F)F)n2n1 (stereo not drawn) | VCaP cells | +++ (<40% : +++) |
| Cc1cc([C@H](C(=O)N2C[C@H](O)C[C@H]2C(=O)N[C@@H](CC(=O)N2CCC(C#Cc3ccc(C4CCN(C5=Nn6c(nnc6C(F)(F)F)CC5)CC4)cc3)CC2)c2ccc(-c3scnc3C)cc2)C(C)C)on1 | VCaP cells | +++ (<40% : +++) |

---

System: VCaP cells
assay info: Cytotoxicity assay (AlamarBlue, 72 hours)
Assay type: cell-based
run conditions: 72 hours treatment, concentration not given
endpoint name: Cytotoxicity, VCaP cells (cell viability %)

| molecule | value measured |
| --- | --- |
| CC1(C)[C@H](NC(=O)c2ccc(C#CC3CCN(c4cccc5c4C(=O)N(C4CCC(=O)NC4=O)C5=O)CC3)cc2)C(C)(C)[C@H]1Oc1ccc2nnc(C(F)(F)F)n2n1 (stereo partly shown) | ++ (40-60% : ++) |
| Cc1ncsc1-c1ccc(CNC(=O)[C@@H]2C[C@H](O)CN2C(=O)[C@@H](NC(=O)COCCCOc2ccc(C3CCN(C4=Nn5c(nnc5C(F)(F)F)CC4)CC3)cc2)C(C)(C)C)cc1 | ++ (40-60% : ++) |

---

Test system: CWR22RV1 cells
assay info: Cytotoxicity assay (AlamarBlue, 72 hours)
Type: cell-based
run conditions: 72 hours treatment, concentration not given
endpoint name: Cytotoxicity, CWR22RV1 cells (cell viability %)

| compound | value measured |
| --- | --- |
| Cc1ncsc1-c1ccc(CNC(=O)[C@@H]2C[C@H](O)CN2C(=O)[C@@H](NC(=O)CCCN2CCC(C#Cc3ccc(C4CCN(C5=Nn6c(nnc6C(F)(F)F)CC5)CC4)cc3)CC2)C(C)(C)C)cc1 [Compound 13] | +++ (<40% : +++) |
| Cc1cc([C@H](C(=O)N2C[C@H](O)C[C@H]2C(=O)N[C@@H](CC(=O)N2CCC(C#Cc3ccc(C4CCN(C5=Nn6c(nnc6C(F)(F)F)CC5)CC4)cc3)CC2)c2ccc(-c3scnc3C)cc2)C(C)C)on1 [Compound 14] | +++ (<40% : +++) |
| Cc1ncsc1-c1ccc(CNC(=O)[C@@H]2C[C@H](O)CN2C(=O)[C@@H](NC(=O)COCCCCOc2ccc(C3CCN(C4=Nn5c(nnc5C(F)(F)F)CC4)CC3)cc2)C(C)(C)C)cc1 [Compound 1] | +++ (<40% : +++) |
| Cc1ncsc1-c1ccc(CNC(=O)[C@@H]2C[C@H](O)CN2C(=O)[C@@H](NC(=O)COCCCOc2ccc(C3CCN(C4=Nn5c(nnc5C(F)(F)F)CC4)CC3)cc2)C(C)(C)C)cc1 [Compound 20] | +++ (<40% : +++) |
| Cc1cc([C@H](C(=O)N2C[C@H](O)C[C@H]2C(=O)N[C@@H](CC(=O)NCCOCCCCOc2ccc(C3CCN(C4=Nn5c(nnc5C(F)(F)F)CC4)CC3)cc2)c2ccc(-c3scnc3C)cc2)C(C)C)on1 [Compound 6] | − (<80% : −) |

// query Item Cc1ncsc1-c1ccc(CNC(=O)[C@@H]2C[C@H](O)CN2C(=O)[C@@H](NC(=O)COCCCCCCCOc2ccc(C3CCN(C4=Nn5c(nnc5C(F)(F)F)CC4)CC3)cc2)C(C)(C)C)cc1 [Compound 23] with CWR22RV1 cells - Cytotoxicity, CWR22RV1 cells (cell viability %)?
// result +++ (<40% : +++)
